# System: RPMI-8226
# assay text: NCI tumour cell line growth inhibition, 48 h
Activity calls are given as the source filed them. Cut-off read from the data, not from the text of the source: active = GI50 up to about 1.1 µM and inactive = higher.
Result category, one only: 1.0 for active, 0.0 for inactive

Request: Test call for this compound, please: C=CCC(O[Si](C)(C)C(C)(C)C)c1cc(O[Si](C)(C)C(C)(C)C)ccc1OC (stereo not given)
Response: 0.0

Request: Test call for this compound, please: CC1(CO)OC(n2cc(C(=O)NC(=O)OCc3ccccc3)c(=O)[nH]c2=O)CC1O (stereo not given)
Response: 0.0

Request: Test call for this compound, please: COc1ccc(Cc2c(-c3ccc(C)cc3)n[nH]c(=O)c2C2C(=O)N(c3ccccc3)N=C2c2ccccc2)cc1 (stereo not given)
Response: 0.0

Request: Test call for this compound, please: COC(=O)c1ccc(C)cc1CC1Cc2ccc(C)cc2C1=O (stereo not given)
Response: 0.0

Request: Test call for this compound, please: CCCCc1ccc(Nc2nc(Cl)c3c(ncn3C3CC(Oc4ccc(C)cc4)C(COc4ccc(C)cc4)O3)n2)cc1 (stereo not given)
Response: 0.0

Request: Test call for this compound, please: Cc1cc(O)c(C=O)c2c1C(=O)Oc1c(CO)c(O)c3c(c1O2)C(O)OC3=O (stereo not given) [SLAZINIC ACID]
Response: 0.0

Request: Test call for this compound, please: c1cnn(CN(Cn2cccn2)Cn2cccn2)c1
Response: 0.0

Request: Test call for this compound, please: CN/C=C(/c1ccc(OC)cc1)C(O)c1ccc(OC)c(OC)c1 (stereo not given)
Response: 0.0

Request: Test call for this compound, please: CC(C)(CN1CCCCC1)C(=O)CC(SCCS(=O)(=O)O)c1ccccc1 (stereo not given)
Response: 0.0

Request: Test call for this compound, please: CCc1ccc(NC(=O)NC(=O)c2ccccc2[N+](=O)[O-])cc1Oc1ncc(Cl)cn1
Response: 1.0

Request: Test call for this compound, please: Nc1c(-c2ccc(Cl)cc2Cl)[n+]([O-])c2ccccc2[n+]1[O-]
Response: 0.0

Request: Test call for this compound, please: COc1cccc(-c2cc(O)c3cc(OC)ccc3n2)c1
Response: 1.0

Request: Test call for this compound, please: O=C(O)C1CC2(C1)CC(C(=O)O)C2 (stereo not given)
Response: 0.0

Request: Test call for this compound, please: CC(C)(C)OC(=O)N(CCCCN(CCCNC(=O)C(F)(F)F)C(=O)OC(C)(C)C)CCCNC(=O)C(F)(F)F
Response: 0.0

Request: Test call for this compound, please: Cc1c2c3cc(O)ccc3nc-2n(C)c2ccccc12
Response: 0.0

Request: Test call for this compound, please: O=C(O)/C(Cc1ccnc2ccccc12)=N\O
Response: 0.0

Request: Test call for this compound, please: Cn1c(NC(=O)NC23CC4CC(CC(C4)C2)C3)nc2ccccc21
Response: 0.0

Request: Test call for this compound, please: Cc1cc(C)nc(NS(=O)(=O)c2ccc(Nc3c4ccccc4nc4c(C(=O)N5CCN(CCOS(C)(=O)=O)CC5)cccc34)cc2)n1
Response: 0.0

Request: Test call for this compound, please: CC(C)[Si](OC1=C(C(=O)N(C)c2ccccc2Cl)CCCCC1)(C(C)C)C(C)C
Response: 0.0

Request: Test call for this compound, please: COCOCCCCCO[Si](C)(C)C(C)(C)C
Response: 0.0

Request: Test call for this compound, please: Nc1nc(N)c(-c2ccccc2)c(C(=O)Nc2ccccc2)n1
Response: 0.0

Request: Test call for this compound, please: Cc1ccc(S(=O)(=O)N/N=C2\CCC3(O)CC2(C)CCC2C3CC2(C)C)cc1 (stereo not given)
Response: 0.0

Request: Test call for this compound, please: OCCN(C1=NCCN1)/[N+](=C/c1ccccc1O)[CH-]c1ccccc1O
Response: 0.0

Request: Test call for this compound, please: O=C(O)CNc1ncc2c(n1)-c1ccccc1OC2
Response: 0.0

Request: Test call for this compound, please: COc1cc(CNc2ccc(SC)cc2)cc(OC)c1OC
Response: 0.0

Request: Test call for this compound, please: Cc1cc2c(cc1O)[nH]c1cc3c(cc12)C=CC(C)(C)O3
Response: 0.0

Request: Test call for this compound, please: C/C(=C\COP(=O)(O)OP(=O)(O)O)CCCCCCOCc1ccccc1
Response: 0.0

Request: Test call for this compound, please: COc1ccc(-c2nnc(CCCCCCCCc3nnc(-c4ccc(OC)cc4)n3N)n2N)cc1
Response: 0.0

Request: Test call for this compound, please: CCOC(=O)/C(C#N)=C/c1ccc(SCc2ccco2)c([N+](=O)[O-])c1
Response: 0.0

Request: Test call for this compound, please: O=C(c1ccc(Cl)cc1)c1ccc(OCCCOc2ccc(C(=O)c3ccc(Cl)cc3)cc2)cc1
Response: 0.0

Request: Test call for this compound, please: O=c1[nH]nc(-c2ccccc2)c2[nH]c3c4ccccc4ccc3c12
Response: 1.0

Request: Test call for this compound, please: CCOC(=O)C(/N=N\c1ccc(S(N)(=O)=O)cc1)C(C)=O (stereo not given)
Response: 0.0

Request: Test call for this compound, please: S=c1cc(-c2ccc3c(c2)OCO3)s[nH]1
Response: 0.0

Request: Test call for this compound, please: CC1OC(OC2C(O[C@H]3CC[C@@]4(C)C(=CC[C@H]5[C@@H]6C[C@@H]7O[C@]8(CC[C@@H](C)CO8)[C@@H](C)[C@@H]7[C@@]6(C)CC[C@@H]54)C3)OC(CO)C(O)C2O)C(O)C(O)C1O (stereo not given in full)
Response: 1.0

Request: Test call for this compound, please: O=C(/C=C/c1ccccc1)N1CCCCC1
Response: 0.0

Request: Test call for this compound, please: C1CC2=C(C1)[Se]C(=C1Sc3nsnc3S1)[Se]2
Response: 0.0

Request: Test call for this compound, please: CC(=O)OCC1OC(n2c(-c3cccs3)c3c(c(C#N)c2=S)-c2ccccc2CC3)C(OC(C)=O)C(OC(C)=O)C1OC(C)=O (stereo not given)
Response: 0.0

Request: Test call for this compound, please: Cc1cc([N+](=O)[O-])c(S(=O)(=O)c2ccccc2)c([N+](=O)[O-])c1
Response: 0.0

Request: Test call for this compound, please: C#CCn1c(=O)ccn(/C(=C\C(=O)OCC)C(=O)OCC)c1=O
Response: 0.0

Request: Test call for this compound, please: COc1ccc(/C=C/C(=O)c2sc(-n3nc(-c4ccccc4)cc3-c3ccccc3)nc2C)cc1
Response: 0.0

Where do these numbers come from? They come from ChEMBL document CHEMBL1201862.
